In this section we review reported collision cross section in nitrogen values for a set of compounds.
test: collision cross section in nitrogen (drift tube, single-field); higher = larger gas-phase ion size; conditions: ion type: [M+H]; ion source: APCI; ion mode: Positive;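 note: chemical standards at 10 µM analysed by drift tube IMS-QTOF MS in about 3.95 torr nitrogen, mean of duplicate injections differing ≤1%, mass error below 10 ppm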
Where a name gives a salt, the structure may show the parent alone.
parameter: collision cross section in nitrogen (Å²)

INSERT INTO assay_data (compound, parameter, result_value) VALUES
  ('CC(CCc1ccccc1)NCC(O)c1ccc(O)c(C(N)=O)c1 (stereo not given) [Labetalol hydrochloride]', 'collision cross section in nitrogen', 175.7),
  ('Cn1cnc([N+](=O)[O-])c1Sc1ncnc2nc[nH]c12', 'collision cross section in nitrogen', 158.6),
  ('NC(=O)c1cccnc1 [Niacinamide]', 'collision cross section in nitrogen', 125.7),
  ('COc1cccc([C@H](O)C2CCN(CCc3ccc(F)cc3)CC2)c1OC', 'collision cross section in nitrogen', 185),
  ('CCOP(=S)(OCC)Oc1cc(C)nc(C(C)C)n1', 'collision cross section in nitrogen', 173.5);
